# System: OVCAR-4 ovarian
# measurement_description: NCI tumour cell line growth inhibition, 48 h; in the data active means GI50 below about 0.43 µM; inactive means the rest
// one of active, inactive, no free text

Examples from the recorded data:
>  <compound>
CC(=O)Nc1ccc(C(=O)COc2cccc(/C=C3\CCc4ccccc4C3=O)c2)cc1

>  <assigned_class>
inactive

$$$$
>  <compound>
Nc1ccc(N)c2c1C(=O)c1cccc([N+](=O)[O-])c1C2=O

>  <assigned_class>
inactive

$$$$
>  <compound>
C/C(=N\NC(=O)c1ccncc1)c1ccccc1O

>  <assigned_class>
inactive

$$$$

Please state the recorded outcome for this compound: CCNc1nc(-c2ccc(Cl)c(OC)c2)c(-c2ccnc(NCCNS(=O)(=O)c3ccc(Cl)cc3)n2)s1 inactive

Same again, this time with O=C(c1ccccc1)c1ccc(N2C(=O)C3C4c5ccccc5C(/C=C/C(=O)c5ccccn5)(c5ccccc54)C3C2=O)cc1 (centres undefined) inactive

Queued: CCc1c[nH]c2ncnc(N3CC[C@](N)(CNC(=O)c4ccc(F)cc4F)C3)c12 inactive

Please give the result for OCCn1c(-c2ccncc2)c(-c2ccc(F)cc2)c2ncccc21 too. inactive

Another compound: Cn1c(=O)c(-c2c(Cl)cccc2Cl)cc2cnc(Nc3ccc(N4CCOCC4)cc3)nc21 active

One more compound: COc1ccc(Cl)cc1Nc1nc(C(F)(F)F)ccc1C(=O)N/N=C/c1ccc(Cl)cc1 inactive

* * *

# Test system: IGROV1 ovarian
# measurement_description: NCI tumour cell line growth inhibition, 48 h
readout_label: GI50

A selection of reference data follows.
>  <compound>
O=C(Nc1cccc(C(F)(F)F)c1)Nc1cc(S(=O)(=O)NC2CC2)ccc1-c1ccsc1

>  <target_of_assay>
IGROV1 ovarian

>  <GI50>
7.18 µM

$$$$
>  <compound>
N#Cc1c(N)nc(N2CCOCC2)c(C#N)c1-c1ccc(Cl)cc1Cl

>  <target_of_assay>
IGROV1 ovarian

>  <GI50>
6.64 µM

$$$$
>  <compound>
Nc1ccc(N)c2c1C(=O)c1cccc([N+](=O)[O-])c1C2=O

>  <target_of_assay>
IGROV1 ovarian

>  <GI50>
3.92 µM

$$$$
>  <compound>
CCNc1nc(-c2ccc(Cl)c(OC)c2)c(-c2ccnc(NCCNS(=O)(=O)c3ccc(Cl)cc3)n2)s1

>  <target_of_assay>
IGROV1 ovarian

>  <GI50>
4.68 µM

$$$$
>  <compound>
CS(=O)(=O)Nc1ccc(Nc2c3ccccc3nc3cc(Cl)ccc23)cc1

>  <target_of_assay>
IGROV1 ovarian

>  <GI50>
1.62 µM

$$$$
>  <compound>
c1csc(-c2[nH]nc3c2CCc2ccccc2-3)c1

>  <target_of_assay>
IGROV1 ovarian

>  <GI50>
19.4 µM

$$$$

Name the reported GI50 value associated with the compound O=C(c1ccccc1)c1ccc(N2C(=O)C3C4c5ccccc5C(/C=C/C(=O)c5ccccn5)(c5ccccc54)C3C2=O)cc1 (centres undefined) 1.86 µM

And for CC(=O)OC1CCC2(C)C(=CCC3C4CC(CN5CC5)C(=O)C4(C)CCC32)C1 (centres undefined) ? 4.23 µM

Check O=C(NCc1cccnc1)c1ccc([N+](=O)[O-])o1 too. 4.52 µM

* * *

# System: LXFL 529 NSCLC
# measurement_description: NCI tumour cell line growth inhibition, 48 h
readout_label: TGI

Use these answered entries as a reference point.
>  <compound>
CCNC(=O)O/N=C1/C=C2CC[C@@H]3C(CC[C@@]4(C)C3CC[C@@H]4OC(=O)NCC)[C@@]2(C)CC1 (stereo partly drawn)

>  <readout_label>
TGI

>  <measured_value>
3.4 µM

$$$$
>  <compound>
COC(=O)CCSC(=O)Nc1ccccc1Cl

>  <readout_label>
TGI

>  <measured_value>
> 100 µM

$$$$

Proceed to the following item.
Item under review: COC(=O)N/N=C(\c1nc2ccc(Cl)cc2[nH]c1=O)C(O)c1ccc([N+](=O)[O-])cc1 (stereo not drawn) . Reported TGI? > 100 µM
